- Experiment summary: method code SF-HPLC, from DOI: 10.1002/jps.2600810814, PMID: 1403725
Quick reference for logP among some compounds
Measured quantity: logP

Compound smiles: CCN(C)N=O
Measured quantity: logP
Meas value: 0.08
--
Compound smiles: CN(N=O)C(C)(C)C
Measured quantity: logP
Meas value: 0.86
--
Compound smiles: CCCCN(C)N=O
Measured quantity: logP
Meas value: 1.12
--
Compound smiles: CN(C)N=O
Measured quantity: logP
Meas value: -0.38
--
Compound smiles: CCN(CC)N=O
Measured quantity: logP
Meas value: 0.61
--
Compound smiles: CCN(N=O)C(C)C
Measured quantity: logP
Meas value: 1
--
Compound smiles: CCCCCN(CCCCC)N=O
Measured quantity: logP
Meas value: 3.91
--
Compound smiles: CCCN(C)N=O
Measured quantity: logP
Meas value: 0.61
--
Compound smiles: CC(C)CN(CC(C)C)N=O
Measured quantity: logP
Meas value: 2.39
--
Compound smiles: CC(C)N(N=O)C(C)C
Measured quantity: logP
Meas value: 1.48
--
Compound smiles: CCCCN(CC)N=O
Measured quantity: logP
Meas value: 1.67
--
Compound smiles: CCCN(CCC)N=O
Measured quantity: logP
Meas value: 1.61
--
Compound smiles: CCCCN(CCCC)N=O
Measured quantity: logP
Meas value: 2.73
--
Compound smiles: CCCCN(CCC)N=O
Measured quantity: logP
Meas value: 2.13
